The entries below come with measured melting point values attached.

Take a look at these entries with their results.
>>> print(df.to_string())
                                   compound  endpoint_value
0  CC(=S)NC[C@H]1CN(c2ccc(SCCCl)c(F)c2)C(=O)O1   134 to 135 °C
1   CC(=S)NC[C@H]1CN(c2ccc(N)c(F)c2)C(=O)O1   137 to 188 °C
2  CC(=O)NC[C@H]1CN(c2ccc(NC(=O)c3csnn3)c(F)c2)C(=O)O1          233 °C
3  CC[S+]([O-])c1ccc(N2C[C@H](CNC(C)=S)OC2=O)cc1F (stereo partly drawn)   138 to 139 °C
4  CC(=S)NC[C@H]1CN(c2ccc(C(=O)Oc3c(F)c(F)c(F)c(F)c3F)c(F)c2)C(=O)O1   163 to 164 °C
5  CC(=S)NC[C@H]1CN(c2ccc(S(C)(=O)=O)c(F)c2)C(=O)O1          177 °C
6  COC(=O)c1ccc(N2C[C@H](CNC(C)=S)OC2=O)cc1F   152 to 154 °C
7  CC(=S)NC[C@H]1CN(c2ccc(N(C)C=S)c(F)c2)C(=O)O1   103 to 104 °C

input: Item under review: CSc1ccc(N2C[C@H](CNC(C)=S)OC2=O)cc1F . Reported melting point?
output: 130 to 131 °C

---

// values below are reported melting point

Here is how some compounds turned out for melting point.
>>> df
                                   compound       quantity  endpoint_value
0  CC(=S)NC[C@H]1CN(c2ccc(NC(=O)c3ccc([N+](=O)[O-])o3)c(F)c2)C(=O)O1  melting point          188 °C
1  CC(=S)NC[C@H]1CN(c2ccc([S+](C)[O-])c(F)c2)C(=O)O1 (stereo partly shown)  melting point   158 to 160 °C
2  CC(=S)NC[C@H]1CN(c2ccc(NC(=O)c3csnn3)c(F)c2)C(=O)O1  melting point   203 to 204 °C
3  CC(=S)NC[C@H]1CN(c2ccc(C(=O)NN)c(F)c2)C(=O)O1  melting point          177 °C

input: Param item = CC(=S)NC[C@H]1CN(c2ccc(C(=O)O)c(F)c2)C(=O)O1 ; retrieve measured melting point.
output: 180 to 182 °C

input: I am curious: what melting point value has been reported for CC(=S)NC[C@H]1CN(c2ccc([S+]([O-])CCF)c(F)c2)C(=O)O1 (stereo partly shown) ?
output: 161 °C

input: GET /values?readout=melting point&item= CC(=S)NC[C@H]1CN(c2ccc(C3=NOCCO3)c(F)c2)C(=O)O1
output: 166 to 167 °C

input: # lookup: melting point of CNC(=O)c1ccc(N2C[C@H](CNC(C)=S)OC2=O)cc1F
output: 176 to 177 °C

input: Name the reported melting point value associated with the compound CC(=S)NC[C@H]1CN(c2ccc(Sc3ncc([N+](=O)[O-])s3)c(F)c2)C(=O)O1
output: 116 to 117 °C

input: // melting point lookup, key: CC(=O)Nc1ccc(N2C[C@H](CNC(C)=S)OC2=O)cc1F
output: 200 to 201 °C

Provenance of the data: patent US6743811B2
